Cited source: ChEMBL document CHEMBL1961873

systemUnderTest: Rho-associated protein kinase 1 (Homo sapiens) (UniProt Q13464);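 also: reported values are mean percent inhibition of ROCK1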
Sequence (Q13464 2-1354 limits assumed): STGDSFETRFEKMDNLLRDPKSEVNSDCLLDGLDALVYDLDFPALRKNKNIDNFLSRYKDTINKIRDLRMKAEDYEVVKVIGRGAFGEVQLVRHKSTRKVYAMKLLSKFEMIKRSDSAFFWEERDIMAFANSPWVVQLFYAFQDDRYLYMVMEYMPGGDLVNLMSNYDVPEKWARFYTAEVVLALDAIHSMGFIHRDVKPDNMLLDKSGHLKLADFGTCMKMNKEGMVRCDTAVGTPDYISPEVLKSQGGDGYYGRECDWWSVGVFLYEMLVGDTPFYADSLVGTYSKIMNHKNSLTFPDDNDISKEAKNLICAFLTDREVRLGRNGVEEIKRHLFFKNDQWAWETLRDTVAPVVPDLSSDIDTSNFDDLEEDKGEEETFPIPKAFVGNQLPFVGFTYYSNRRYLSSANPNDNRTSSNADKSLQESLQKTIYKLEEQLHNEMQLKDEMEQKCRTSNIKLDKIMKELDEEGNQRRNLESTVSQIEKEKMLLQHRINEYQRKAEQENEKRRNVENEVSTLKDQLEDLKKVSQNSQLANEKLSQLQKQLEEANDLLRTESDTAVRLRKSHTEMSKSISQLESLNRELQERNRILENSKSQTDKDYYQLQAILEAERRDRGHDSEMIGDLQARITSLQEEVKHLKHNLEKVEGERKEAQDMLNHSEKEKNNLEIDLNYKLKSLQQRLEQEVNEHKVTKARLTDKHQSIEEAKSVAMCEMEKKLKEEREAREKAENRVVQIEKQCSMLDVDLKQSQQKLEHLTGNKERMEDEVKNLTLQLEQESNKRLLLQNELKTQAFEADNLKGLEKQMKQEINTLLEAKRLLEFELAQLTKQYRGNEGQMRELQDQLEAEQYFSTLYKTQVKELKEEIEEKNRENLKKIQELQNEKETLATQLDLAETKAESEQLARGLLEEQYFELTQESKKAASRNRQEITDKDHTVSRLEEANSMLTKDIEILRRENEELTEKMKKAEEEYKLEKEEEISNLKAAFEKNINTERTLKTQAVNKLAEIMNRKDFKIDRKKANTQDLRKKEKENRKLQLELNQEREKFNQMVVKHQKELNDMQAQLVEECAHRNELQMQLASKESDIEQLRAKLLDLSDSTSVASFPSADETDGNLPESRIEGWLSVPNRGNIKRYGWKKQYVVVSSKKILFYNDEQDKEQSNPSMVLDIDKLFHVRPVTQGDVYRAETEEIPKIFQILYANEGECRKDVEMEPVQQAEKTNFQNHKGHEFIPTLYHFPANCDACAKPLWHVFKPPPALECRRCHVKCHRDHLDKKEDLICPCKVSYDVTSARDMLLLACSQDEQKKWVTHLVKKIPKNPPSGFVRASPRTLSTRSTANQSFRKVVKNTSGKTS
testConditions: at 1 µM
Recorded inhibition values for a group of molecules are listed next.
endpointLabel: inhibition (%)

1) COc1ccc2ncn(-c3cc(O[C@H](C)c4ccccc4Cl)c(C(N)=O)s3)c2c1; 2.68
2) O=C(NCC1CC1)c1ccc(-c2cccc(C(=O)NC3CC3)c2)cc1; 2.85
3) Fc1ccc(-c2ncn(CCCN3CCOCC3)c2-c2ccncc2)cc1; -0.82
4) NS(=O)(=O)c1ccc(Nc2cc(-c3ccc(O)c(F)c3)n[nH]2)cc1; 1.73
5) Fc1ccc(-c2ncn(C3CCNCC3)c2-c2ccnc(Oc3ccc(F)c(F)c3)n2)cc1; 6.19
6) Clc1ccc(CNc2nccc(-c3cnn4ncccc34)n2)cc1; 1.31
7) NC(=O)c1ccc(Oc2nccc(-c3c(-c4ccc(F)cc4)ncn3C3CCNCC3)n2)cc1; 3.99
8) Cc1ccc(C(=O)NC(C)C)cc1-c1ccc(C(=O)NCC2CC2)cc1; -0.1
9) O=C1Nc2ccc(I)cc2C1=Cc1cc(Br)c(O)c(Br)c1; 2.32
10) O=C(Nc1n[nH]c2nc(-c3ccc(O)cc3)c(Br)cc12)C1CC1; 1.33
